These measurements were taken from ChEMBL document CHEMBL1151757.

List of Drug uptake values.
system: Midbrain; assay: Drug uptake in anesthetized cynomolgus monkey brain midbrain after 215 mins postinjection; format: ADME, organism-based, Macaca fascicularis; conditions: in vivo
The answer should be written as a number, with no unit following it.

Guide cases for Drug uptake, answers given:
Problem: Query (compound): O=C(OCCC[18F])C1C2CCC(CC1c1cccc(/C=C\Br)c1)N2 (stereo not given) ; field requested: Drug uptake
Solution: 4.58

Problem: Query (compound): O=C(OCC[18F])C1C2CCC(CC1c1ccc(/C=C\I)cc1)N2 (stereo not given) ; field requested: Drug uptake
Solution: 4.63

Problem: Query (compound): O=C(OCC[18F])C1C2CCC(CC1c1cccc(/C=C\Br)c1)N2 (stereo not given) ; field requested: Drug uptake
Solution: 3.76

Continuing:
Problem: Query (compound): O=C(OCCC[18F])C1C2CCC(CC1c1cccc(/C=C\I)c1)N2 (stereo not given) ; field requested: Drug uptake
Solution: 3.69

Problem: Query (compound): O=C(OCC[18F])C1C2CCC(CC1c1cccc(/C=C\I)c1)N2 (stereo not given) ; field requested: Drug uptake
Solution: 3.12

---

test system: Pons; assay: Drug uptake in anesthetized cynomolgus monkey brain pons after 18.5 mins postinjection; format: ADME, organism-based, Macaca fascicularis; conditions: in vivo
Measured metric: Drug uptake
The answer should be written as a number, with no unit following it.

Guide cases for Drug uptake, answers given:
Problem: Field: Drug uptake (Pons). Entry: O=C(OCC[18F])C1C2CCC(CC1c1cccc(/C=C\I)c1)N2 (stereo not given)
Solution: 2.91

Problem: Field: Drug uptake (Pons). Entry: O=C(OCCC[18F])C1C2CCC(CC1c1cccc(/C=C\Br)c1)N2 (stereo not given)
Solution: 4.55

Problem: Field: Drug uptake (Pons). Entry: O=C(OCC[18F])C1C2CCC(CC1c1ccc(/C=C\I)cc1)N2 (stereo not given)
Solution: 2.17

Continuing:
Problem: Field: Drug uptake (Pons). Entry: O=C(OCC[18F])C1C2CCC(CC1c1cccc(/C=C\Br)c1)N2 (stereo not given)
Solution: 4.13

Problem: Field: Drug uptake (Pons). Entry: O=C(OCCC[18F])C1C2CCC(CC1c1cccc(/C=C\I)c1)N2 (stereo not given)
Solution: 4.2

---

test system: Medulla; assay: Drug uptake in anesthetized cynomolgus monkey brain medulla after 0.5 mins postinjection; assay type: ADME, organism-based, Macaca fascicularis; conditions: in vivo
Measured metric: Drug uptake
The answer should be written as a number, with no unit following it.

Guide cases for Drug uptake, answers given:
Problem: Query (compound): O=C(OCCC[18F])C1C2CCC(CC1c1cccc(/C=C\Br)c1)N2 (stereo not given) ; field requested: Drug uptake
Solution: 0.02

Problem: Query (compound): O=C(OCCC[18F])C1C2CCC(CC1c1cccc(/C=C\I)c1)N2 (stereo not given) ; field requested: Drug uptake
Solution: 0.01

Problem: Query (compound): O=C(OCC[18F])C1C2CCC(CC1c1cccc(/C=C\Br)c1)N2 (stereo not given) ; field requested: Drug uptake
Solution: 0

Problem: Query (compound): O=C(OCC[18F])C1C2CCC(CC1c1ccc(/C=C\I)cc1)N2 (stereo not given) ; field requested: Drug uptake
Solution: 0

# evaluate next
Problem: Query (compound): O=C(OCC[18F])C1C2CCC(CC1c1cccc(/C=C\I)c1)N2 (stereo not given) ; field requested: Drug uptake
Solution: 0

---

List of Drug uptake values.
tested on: Pons; test: Drug uptake in anesthetized cynomolgus monkey brain pons after 27.5 mins postinjection; type: ADME, organism-based, Macaca fascicularis; settings: in vivo
The answer should be written as a number, with no unit following it.

Guide cases for Drug uptake, answers given:
Problem: Query (molecule): O=C(OCC[18F])C1C2CCC(CC1c1cccc(/C=C\I)c1)N2 (stereo not given) ; field requested: Drug uptake
Solution: 3.21

Problem: Query (molecule): O=C(OCC[18F])C1C2CCC(CC1c1cccc(/C=C\Br)c1)N2 (stereo not given) ; field requested: Drug uptake
Solution: 4.1

Problem: Query (molecule): O=C(OCCC[18F])C1C2CCC(CC1c1cccc(/C=C\Br)c1)N2 (stereo not given) ; field requested: Drug uptake
Solution: 5.03

Problem: Query (molecule): O=C(OCC[18F])C1C2CCC(CC1c1ccc(/C=C\I)cc1)N2 (stereo not given) ; field requested: Drug uptake
Solution: 2.58

# evaluate next
Problem: Query (molecule): O=C(OCCC[18F])C1C2CCC(CC1c1cccc(/C=C\I)c1)N2 (stereo not given) ; field requested: Drug uptake
Solution: 4.39

---

experiment: Drug uptake in anesthetized cynomolgus monkey brain frontal lobe after 35 mins postinjection; assay type: ADME, organism-based, Macaca fascicularis; details: in vivo
Checkbox rule: Drug uptake lower than 3 = fulfilled; Drug uptake not lower than 3 = not fulfilled.

Problem: Determine if O=C(OCC[18F])C1C2CCC(CC1c1cccc(/C=C\Br)c1)N2 (stereo not given) shows Drug uptake strictly lower than 3.
Solution: fulfilled

Problem: Determine if O=C(OCC[18F])C1C2CCC(CC1c1cccc(/C=C\I)c1)N2 (stereo not given) shows Drug uptake strictly lower than 3.
Solution: fulfilled

Problem: Determine if O=C(OCCC[18F])C1C2CCC(CC1c1cccc(/C=C\I)c1)N2 (stereo not given) shows Drug uptake strictly lower than 3.
Solution: fulfilled

Problem: Determine if O=C(OCC[18F])C1C2CCC(CC1c1ccc(/C=C\I)cc1)N2 (stereo not given) shows Drug uptake strictly lower than 3.
Solution: fulfilled

Here is another compound to look at.
Problem: Determine if O=C(OCCC[18F])C1C2CCC(CC1c1cccc(/C=C\Br)c1)N2 (stereo not given) shows Drug uptake strictly lower than 3.
Solution: not fulfilled

---

test system: Pons; assay: Drug uptake in anesthetized cynomolgus monkey brain pons after 75 mins postinjection; type: ADME, organism-based, Macaca fascicularis; details: in vivo, 1.25 h
Measured metric: Drug uptake
The answer should be written as a number, with no unit following it.

Problem: Query (molecule): O=C(OCC[18F])C1C2CCC(CC1c1ccc(/C=C\I)cc1)N2 (stereo not given) ; field requested: Drug uptake
Solution: 3.39

Problem: Query (molecule): O=C(OCC[18F])C1C2CCC(CC1c1cccc(/C=C\I)c1)N2 (stereo not given) ; field requested: Drug uptake
Solution: 3.21

Problem: Query (molecule): O=C(OCC[18F])C1C2CCC(CC1c1cccc(/C=C\Br)c1)N2 (stereo not given) ; field requested: Drug uptake
Solution: 4.51

Problem: Query (molecule): O=C(OCCC[18F])C1C2CCC(CC1c1cccc(/C=C\I)c1)N2 (stereo not given) ; field requested: Drug uptake
Solution: 4.34

Continuing:
Problem: Query (molecule): O=C(OCCC[18F])C1C2CCC(CC1c1cccc(/C=C\Br)c1)N2 (stereo not given) ; field requested: Drug uptake
Solution: 4.67

---

tested on: Thalamus; experiment: Drug uptake in anesthetized cynomolgus monkey brain thalamus after 2.5 mins postinjection; assay type: ADME, organism-based, Macaca fascicularis; parameters: unit not given here; settings: in vivo
List of Drug uptake values.
The answer should be written as a number, with no unit following it.

Guide cases for Drug uptake, answers given:
Problem: Query (molecule): O=C(OCC[18F])C1C2CCC(CC1c1cccc(/C=C\Br)c1)N2 (stereo not given) ; field requested: Drug uptake
Solution: 0.29

Problem: Query (molecule): O=C(OCCC[18F])C1C2CCC(CC1c1cccc(/C=C\Br)c1)N2 (stereo not given) ; field requested: Drug uptake
Solution: 1.12

Problem: Query (molecule): O=C(OCC[18F])C1C2CCC(CC1c1cccc(/C=C\I)c1)N2 (stereo not given) ; field requested: Drug uptake
Solution: 0.43

Continuing:
Problem: Query (molecule): O=C(OCC[18F])C1C2CCC(CC1c1ccc(/C=C\I)cc1)N2 (stereo not given) ; field requested: Drug uptake
Solution: 0.4

Problem: Query (molecule): O=C(OCCC[18F])C1C2CCC(CC1c1cccc(/C=C\I)c1)N2 (stereo not given) ; field requested: Drug uptake
Solution: 0.8

---

List of Drug uptake values.
system: Midbrain; assay: Drug uptake in anesthetized cynomolgus monkey brain midbrain after 165 mins postinjection; format: ADME, organism-based, Macaca fascicularis; conditions: in vivo, 2.75 h
The answer should be written as a number, with no unit following it.

Guide cases for Drug uptake, answers given:
Problem: Query (compound): O=C(OCCC[18F])C1C2CCC(CC1c1cccc(/C=C\I)c1)N2 (stereo not given) ; field requested: Drug uptake
Solution: 4.26

Problem: Query (compound): O=C(OCC[18F])C1C2CCC(CC1c1cccc(/C=C\I)c1)N2 (stereo not given) ; field requested: Drug uptake
Solution: 3.53

Continuing:
Problem: Query (compound): O=C(OCCC[18F])C1C2CCC(CC1c1cccc(/C=C\Br)c1)N2 (stereo not given) ; field requested: Drug uptake
Solution: 5.06

Problem: Query (compound): O=C(OCC[18F])C1C2CCC(CC1c1ccc(/C=C\I)cc1)N2 (stereo not given) ; field requested: Drug uptake
Solution: 4.6

Problem: Query (compound): O=C(OCC[18F])C1C2CCC(CC1c1cccc(/C=C\Br)c1)N2 (stereo not given) ; field requested: Drug uptake
Solution: 4.28
